Provenance of the data: ChEMBL document CHEMBL1921763

# System under test: Mitogen-activated protein kinase 10 (Homo sapiens, UniProt P53779)
# Sequence (P53779 whole entry): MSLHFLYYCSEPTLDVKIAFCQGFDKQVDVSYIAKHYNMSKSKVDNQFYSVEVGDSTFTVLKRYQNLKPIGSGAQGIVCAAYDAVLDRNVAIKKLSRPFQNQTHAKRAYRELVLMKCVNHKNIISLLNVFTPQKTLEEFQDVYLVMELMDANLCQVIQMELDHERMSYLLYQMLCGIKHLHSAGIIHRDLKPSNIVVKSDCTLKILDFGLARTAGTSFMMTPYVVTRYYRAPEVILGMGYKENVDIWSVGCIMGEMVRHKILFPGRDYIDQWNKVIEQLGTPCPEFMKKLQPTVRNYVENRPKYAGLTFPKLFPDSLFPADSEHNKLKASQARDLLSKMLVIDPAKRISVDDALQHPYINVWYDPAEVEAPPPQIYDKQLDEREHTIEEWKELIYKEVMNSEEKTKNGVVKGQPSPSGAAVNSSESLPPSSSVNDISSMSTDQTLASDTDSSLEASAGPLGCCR
# Procedure details: Inhibition of JNK3 using biotinylated-ATF2 as substrate by HTRF assay
Binary call on IC50 with cut-off 0.1 µM: strictly below means label 1, and equality or higher means label 0.

See these solved cases before continuing.
Structure as smiles	Group label
CC(C)(C)Oc1ccc(Oc2cc(Nc3ccccc3C(N)=O)c(C(F)(F)F)cn2)cc1	label 1
NC(=O)c1ccccc1Nc1cc(Oc2ccc3c(c2)OCO3)ncc1C(F)(F)F	label 1
NC(=O)c1ccccc1Nc1ccnc(Oc2ccc(N3CCNCC3)cc2)c1	label 1

Challenge: IC50 under 0.1 µM? Item: "COc1ccc(Oc2cc(Nc3ccccc3C(N)=O)c(F)cn2)cc1"
Response given: label 1

Challenge: IC50 under 0.1 µM? Item: "COc1ccccc1Oc1cc(Nc2ccccc2C(N)=O)c(C(F)(F)F)cn1"
Response given: label 0

Challenge: IC50 under 0.1 µM? Item: "NC(=O)c1ccccc1Nc1cc(Oc2cccc(Cl)c2)ncc1C(F)(F)F"
Response given: label 0

Challenge: IC50 under 0.1 µM? Item: "COc1ccc(Oc2cc(Nc3c(Cl)cccc3C(N)=O)c(C(F)(F)F)cn2)cc1"
Response given: label 0

Challenge: IC50 under 0.1 µM? Item: "COc1ccc(Oc2cc(Nc3ccccc3C(N)=O)c(C(F)(F)F)cn2)cc1"
Response given: label 1

Challenge: IC50 under 0.1 µM? Item: "NC(=O)c1ccccc1Nc1cc(Oc2ccc(Br)cc2)ncc1C(F)(F)F"
Response given: label 0

* * *

# System under test: Mitogen-activated protein kinase 8 (Homo sapiens, UniProt P45983)
# Sequence (P45983 whole entry): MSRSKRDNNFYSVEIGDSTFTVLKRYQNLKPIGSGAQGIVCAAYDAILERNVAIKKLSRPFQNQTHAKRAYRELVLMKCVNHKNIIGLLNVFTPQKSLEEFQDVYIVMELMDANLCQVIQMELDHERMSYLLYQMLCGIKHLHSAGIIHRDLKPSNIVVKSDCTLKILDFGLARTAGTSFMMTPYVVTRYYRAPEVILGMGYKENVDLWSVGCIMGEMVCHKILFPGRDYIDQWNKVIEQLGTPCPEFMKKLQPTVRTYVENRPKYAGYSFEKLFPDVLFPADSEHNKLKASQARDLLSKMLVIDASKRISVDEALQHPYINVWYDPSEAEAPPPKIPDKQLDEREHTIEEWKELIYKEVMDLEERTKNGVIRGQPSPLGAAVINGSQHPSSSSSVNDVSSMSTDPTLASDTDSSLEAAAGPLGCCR
# Procedure details: Inhibition of JNK1 using biotinylated-ATF2 as substrate by HTRF assay
Parameter measured: log10(IC50) (log10 of the value in nM)
Each number you see is log10 of IC50, and the unit inside the log is nM.

Structure as smiles	Measured result
COc1ccc(Oc2cc(Nc3ccccc3C(N)=O)c(C(F)(F)F)cn2)cc1	1.43
NC(=O)c1ccccc1Nc1cc(Oc2ccc(Br)cc2)ncc1C(F)(F)F	2.68
NC(=O)c1ccccc1Nc1ccnc(Oc2ccccc2)c1	2.52
NC(=O)c1ccccc1Nc1cc(Oc2ccc(Cl)c(Cl)c2)ncc1C(F)(F)F	2.83
COc1ccccc1Oc1cc(Nc2ccccc2C(N)=O)c(C(F)(F)F)cn1	3.51
CCOc1ccc(Oc2cc(Nc3ccccc3C(N)=O)c(C(F)(F)F)cn2)cc1	1.54

Batch of 5 compounds: report log10(IC50) for each.
1. NC(=O)c1ccccc1Nc1cc(Oc2ccc(F)cc2)ncc1C(F)(F)F
2. COc1ccc(Oc2ncc(Cl)c(Nc3ccccc3C(N)=O)n2)cc1
3. CCCOc1ccc(Oc2cc(Nc3ccccc3C(N)=O)c(C(F)(F)F)cn2)cc1
4. COc1ccc(Oc2cc(Nc3ccccc3C(N)=O)c(C(F)(F)F)cn2)c(Cl)c1
5. COc1cccc(Oc2cc(Nc3ccccc3C(N)=O)c(C(F)(F)F)cn2)c1

Response given:
[2.00, 0.60, 2.00, 2.87, 1.58]

Batch of 3 compounds: report log10(IC50) for each.
1. NC(=O)c1ccccc1Nc1cc(Oc2ccc(OC(F)(F)F)cc2)ncc1C(F)(F)F
2. NC(=O)c1ccccc1Nc1ccnc(Oc2ccc(N3CCNCC3)cc2)c1
3. NC(=O)c1ccccc1Nc1cc(Oc2cccc3ccccc23)ncc1C(F)(F)F

Response given:
1.54
2.49
2.81

Batch of 6 compounds: report log10(IC50) for each.
1. COc1ccc(Oc2cc(Nc3ccccc3-c3nnc[nH]3)c(Cl)cn2)cc1
2. NC(=O)c1ccccc1Nc1cc(Oc2ccc3c(c2)OCO3)ncc1C(F)(F)F
3. COc1ccc(Oc2cc(Nc3ccccc3C(N)=O)c(Cl)cn2)cc1
4. CC(C)(C)Oc1ccc(Oc2cc(Nc3ccccc3C(N)=O)c(C(F)(F)F)cn2)cc1
5. NC(=O)c1ccccc1Nc1cc(Oc2ccc(-c3cccnc3)cc2)ncc1C(F)(F)F
6. COc1ccc(Oc2cc(Nc3ccccc3C(N)=O)c(F)cn2)cc1

Response given:
1. 2.08
2. 1.64
3. 0.90
4. 1.34
5. 1.72
6. 1.41

Challenge: Look up log10(IC50): "CNC(=O)c1ccccc1Nc1cc(Oc2ccc(OC)cc2)ncc1Cl"
Response given: 2.97

* * *

# Procedure details: Drug level in C57B16 mouse brain at 10 mg/kg, ip after 2 hrs
# Assay type: ADME, organism-based
# Design: dose 10 mg/kg, route intraperitoneal
# Measurement setup: read-out: Drug uptake
Could you please report measured concentration at 2 h for the items listed next?
Answers are plain numbers, in nM.

// below: answered compounds
Structure as smiles	Parameter measured	Measured result
COc1ccc(Oc2cc(Nc3ccccc3C(N)=O)c(C(F)(F)F)cn2)cc1	concentration at 2 h	5200
NC(=O)c1ccccc1Nc1cc(Oc2ccc(-n3cncn3)cc2)ncc1C(F)(F)F	concentration at 2 h	2500

Next compound, please.
Challenge: Look up concentration at 2 h: "COc1ccc(Oc2cc(Nc3ccccc3C(N)=O)c(Cl)cn2)cc1"
Response given: 1800

* * *

# Procedure details: AUC in Sprague-Dawley rat at 1 mg/kg, iv and 2 mg/kg, po
# Assay type: ADME, organism-based
# Measurement setup: plasma
Parameter measured: AUC (µM·h)
Give bare numbers, in µM·h.

// below: answered compounds
Structure as smiles	Measured result
COc1ccc(Oc2ncc(Cl)c(Nc3ccccc3C(N)=O)n2)cc1	1
COc1ccc(Oc2cc(Nc3ccccc3C(N)=O)c(Cl)cn2)cc1	6.3
COc1ccc(Oc2cc(Nc3ccccc3C(N)=O)c(C(F)(F)F)cn2)cc1	20.1
NC(=O)c1ccccc1Nc1ccnc(Oc2ccc(N3CCNCC3)cc2)c1	0.3

Next compound, please.
Challenge: Look up AUC: "NC(=O)c1ccccc1Nc1cc(Oc2ccc(-n3cncn3)cc2)ncc1C(F)(F)F"
Response given: 9.1

* * *

Could you please report measured half-life for the items listed next?
# Procedure details: Half life in Sprague-Dawley rat at 1 mg/kg, iv and 2 mg/kg, po
# Assay type: ADME, organism-based
# Measurement setup: in vivo
Numbers only, in h.

Structure as smiles	Measure unit	Measured result
COc1ccc(Oc2cc(Nc3ccccc3C(N)=O)c(Cl)cn2)cc1	h	1
COc1ccc(Oc2cc(Nc3ccccc3C(N)=O)c(C(F)(F)F)cn2)cc1	h	1
NC(=O)c1ccccc1Nc1cc(Oc2ccc(-n3cncn3)cc2)ncc1C(F)(F)F	h	1
NC(=O)c1ccccc1Nc1ccnc(Oc2ccc(N3CCNCC3)cc2)c1	h	1.5

Challenge: Look up half-life: "COc1ccc(Oc2ncc(Cl)c(Nc3ccccc3C(N)=O)n2)cc1"
Response given: 0.5

* * *

Could you please report measured bioavailability for the items listed next?
# Procedure details: Oral bioavailability in Sprague-Dawley rat at 2 mg/kg
# Type: ADME, organism-based
# Measurement setup: in vivo
Answer as a quantity: numeral, then unit.

// below: answered compounds
Structure as smiles	Measured result
COc1ccc(Oc2ncc(Cl)c(Nc3ccccc3C(N)=O)n2)cc1	25%
COc1ccc(Oc2cc(Nc3ccccc3C(N)=O)c(C(F)(F)F)cn2)cc1	79%
NC(=O)c1ccccc1Nc1cc(Oc2ccc(-n3cncn3)cc2)ncc1C(F)(F)F	73%
COc1ccc(Oc2cc(Nc3ccccc3C(N)=O)c(Cl)cn2)cc1	90%

Next compound, please.
Challenge: Look up bioavailability: "NC(=O)c1ccccc1Nc1ccnc(Oc2ccc(N3CCNCC3)cc2)c1"
Response given: 14%

* * *

# System under test: Mitogen-activated protein kinase 10 (Homo sapiens)
# Procedure details: Inhibition of JNK3 using biotinylated-ATF2 as substrate by HTRF assay
Parameter measured: pIC50
Answers are plain numbers, as −log10 of the molar value.

Structure as smiles	System under test	pIC50
NC(=O)c1ccccc1Nc1cc(Oc2cccc3ccccc23)ncc1C(F)(F)F	Mitogen-activated protein kinase 10 (Homo sapiens)	6.00
CCCOc1ccc(Oc2cc(Nc3ccccc3C(N)=O)c(C(F)(F)F)cn2)cc1	Mitogen-activated protein kinase 10 (Homo sapiens)	6.85
COc1ccc(Oc2cc(Nc3cc(Cl)ccc3C(N)=O)c(C(F)(F)F)cn2)cc1	Mitogen-activated protein kinase 10 (Homo sapiens)	7.11
NC(=O)c1ccccc1Nc1cc(Oc2ccc(F)cc2)ncc1C(F)(F)F	Mitogen-activated protein kinase 10 (Homo sapiens)	6.70
COc1ccc(Oc2cc(Nc3ccccc3C(N)=O)c(C(F)(F)F)cn2)c(Cl)c1	Mitogen-activated protein kinase 10 (Homo sapiens)	7.00

Batch of 5 compounds: report pIC50 for each.
1. NC(=O)c1ccccc1Nc1cc(Oc2ccc3ccccc3c2)ncc1C(F)(F)F
2. NC(=O)c1ccccc1Nc1ccnc(Oc2ccccc2)c1
3. NC(=O)c1ccccc1Nc1cc(Oc2ccc(N3CCNCC3)cc2)ncc1C(F)(F)F
4. NC(=O)c1ccccc1Nc1cc(Oc2ccc(OC(F)(F)F)cc2)ncc1C(F)(F)F
5. COc1ccc(Oc2cc(Nc3cccc(Cl)c3C(N)=O)c(C(F)(F)F)cn2)cc1

Response given:
1: 6.49; 2: 6.28; 3: 7.47; 4: 7.46; 5: 5.66
